// K0.5-mut/K0.5-wt lookup, one value per entry
target: plasma purified human AT-III (antithrombin III), in complex with full-length unfractionated heparin (UFH); experiment: ratio of K0.5 of the variant to K0.5 of Catalyst Biosciences WT FIXa, AT-III/UFH inhibition

protein	K0.5-mut/K0.5-wt
FIXa variant D104N/K106S/K247N/N249S/N260S (mature FIX numbering) (protein) chain 1: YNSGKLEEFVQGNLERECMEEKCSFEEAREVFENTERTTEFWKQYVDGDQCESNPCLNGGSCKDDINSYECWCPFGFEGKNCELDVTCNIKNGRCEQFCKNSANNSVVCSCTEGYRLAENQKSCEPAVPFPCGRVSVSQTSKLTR chain 2: VVGGEDAKPGQFPWQVVLNGKVDAFCGGSIVNEKWIVTAAHCVETGVKITVVAGEHNIEETEHTEQNRSVIRIIPHHNYSAAINKYNHDIALLELDEPLVLNSYVTPICIADKEYTNIFLKFGSGYVSGWGRVFHKGRSALVLQYLRVPLVDRATCLRSTKFTIYNNMFCAGFHEGGRDSCQGDSGGPHVTEVEGTSFLTGIISWGEECAMKGKYGIYTKVSRYVNWIKEKTKLT	65.3
FIXa variant K247N/N249S/N260S (mature FIX numbering) (protein) chain 1: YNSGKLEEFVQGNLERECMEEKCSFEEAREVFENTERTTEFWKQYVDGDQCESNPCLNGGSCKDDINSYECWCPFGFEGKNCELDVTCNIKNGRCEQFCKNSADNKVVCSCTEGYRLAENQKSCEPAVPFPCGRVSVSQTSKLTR chain 2: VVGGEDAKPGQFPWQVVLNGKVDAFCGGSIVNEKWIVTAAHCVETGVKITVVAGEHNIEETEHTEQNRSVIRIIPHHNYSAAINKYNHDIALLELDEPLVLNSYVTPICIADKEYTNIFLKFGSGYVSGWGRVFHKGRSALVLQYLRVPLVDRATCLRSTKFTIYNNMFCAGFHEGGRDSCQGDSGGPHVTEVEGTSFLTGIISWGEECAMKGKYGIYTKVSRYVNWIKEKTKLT	8.1
FIXa variant Y155F/K247N/N249S/N260S (mature FIX numbering) (protein) chain 1: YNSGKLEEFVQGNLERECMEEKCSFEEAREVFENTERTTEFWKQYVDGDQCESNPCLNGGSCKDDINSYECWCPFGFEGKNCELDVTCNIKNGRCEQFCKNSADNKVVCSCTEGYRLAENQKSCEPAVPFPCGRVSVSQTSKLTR chain 2: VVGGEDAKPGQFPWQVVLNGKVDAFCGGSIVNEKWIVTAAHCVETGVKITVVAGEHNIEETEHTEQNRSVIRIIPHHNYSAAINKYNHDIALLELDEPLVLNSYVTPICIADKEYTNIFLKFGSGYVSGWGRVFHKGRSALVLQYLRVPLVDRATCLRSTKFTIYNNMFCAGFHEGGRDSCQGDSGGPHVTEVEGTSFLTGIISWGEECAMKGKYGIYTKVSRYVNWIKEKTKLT	7.9
FIXa variant D104N/K106S/Y155F/K247N/N249S/N260S (mature FIX numbering) (protein) chain 1: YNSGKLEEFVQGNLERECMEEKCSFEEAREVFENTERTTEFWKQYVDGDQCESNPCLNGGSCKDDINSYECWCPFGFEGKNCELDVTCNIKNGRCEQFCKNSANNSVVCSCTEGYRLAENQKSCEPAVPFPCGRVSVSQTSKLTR chain 2: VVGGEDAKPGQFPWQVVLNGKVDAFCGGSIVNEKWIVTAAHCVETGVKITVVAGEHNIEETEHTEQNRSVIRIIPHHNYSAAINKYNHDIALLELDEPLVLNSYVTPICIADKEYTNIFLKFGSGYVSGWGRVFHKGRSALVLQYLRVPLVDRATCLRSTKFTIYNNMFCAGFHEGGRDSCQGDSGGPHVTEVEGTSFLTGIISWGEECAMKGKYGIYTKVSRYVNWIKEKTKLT	35.8
FIXa variant K247N/N249S/N260S/R318Y/R338E/R403E/E410N (mature FIX numbering) (protein) chain 1: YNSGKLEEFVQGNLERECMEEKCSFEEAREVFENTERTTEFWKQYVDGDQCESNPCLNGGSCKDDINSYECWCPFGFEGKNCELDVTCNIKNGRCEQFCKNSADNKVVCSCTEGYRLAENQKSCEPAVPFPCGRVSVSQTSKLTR chain 2: VVGGEDAKPGQFPWQVVLNGKVDAFCGGSIVNEKWIVTAAHCVETGVKITVVAGEHNIEETEHTEQNRSVIRIIPHHNYSAAINKYNHDIALLELDEPLVLNSYVTPICIADKEYTNIFLKFGSGYVSGWGRVFHKGYSALVLQYLRVPLVDRATCLESTKFTIYNNMFCAGFHEGGRDSCQGDSGGPHVTEVEGTSFLTGIISWGEECAMKGKYGIYTKVSEYVNWIKNKTKLT	288
